Biological target: T1, human OX40 on cells (human, UniProt P43489 29-277)
T1 construct: also called hOX40-293 cells; hOX40-HT1080
T1 sequence: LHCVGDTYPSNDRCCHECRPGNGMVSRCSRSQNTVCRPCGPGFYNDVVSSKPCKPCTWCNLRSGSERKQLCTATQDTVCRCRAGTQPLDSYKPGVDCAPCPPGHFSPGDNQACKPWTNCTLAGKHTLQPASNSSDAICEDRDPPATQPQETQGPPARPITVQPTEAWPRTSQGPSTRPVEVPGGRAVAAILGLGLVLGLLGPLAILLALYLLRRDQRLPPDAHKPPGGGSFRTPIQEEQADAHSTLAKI
Assay: FACS, activated human T cells; mean ± SD, n=3
propertyLabel: EC50 (nM)
Response body: numeric value in nM, unit text excluded.

In the examples that follow, each entry is paired with its recorded EC50.
>>> valueobserved("20C1 (antibody, V domains shown, also called 20C1.F2.D1; 20C1.F2) VH: EAQLVQSGGGLVHPGGSLRLSCADSGFTFSSYAMYWVRQAPGKGLEWVSAIDTDGGTFYADSVRGRFTISRDNAKNSLYLQMNGLRAEDMAVYFCARLGEGYFFDYWGQGTLVTVSS VL: EIVLTQSPATLSLSPGERATLSCRASQSVSSYLAWYQQKPGQAPRLLIYDASNRATGIPARFSGSGSGTDFTLTISSLEPEDFAVYYCQQRSNWPPTFGGGTKVEIK")
0.1
>>> valueobserved("20B3 (antibody, V domains shown, also called 20B3.G12.A2; 20B3.G2) VH: EVQLVESGGGLVQPGGSLRLSCAASGFTFSSYDMHWVRQTTGKGLEWVSVIGTAGDTYYPGSVKGRFTISRENAKNSLYLQMNSLRAGDTAVYYCARGGMGNYFDYWGQGTLVTVSS VL: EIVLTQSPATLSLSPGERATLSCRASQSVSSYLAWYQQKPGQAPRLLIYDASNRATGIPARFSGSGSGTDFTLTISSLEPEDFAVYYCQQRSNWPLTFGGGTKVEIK")
0.34
>>> valueobserved("3F4 (antibody, V domains shown, also called 3F4.G11.D2; 3F4.G11) VH: QVQLVQSGAEVKKPGASVKVSCKASGNTFTSYDVNWVRQATGQGLEWMGWMNPNSGNTGYAPKFQGRVTMTRNTSISTAYMELSSLRSEDTAVYYCARIYSSSYNWFDPWGQGTLVTVSS VL: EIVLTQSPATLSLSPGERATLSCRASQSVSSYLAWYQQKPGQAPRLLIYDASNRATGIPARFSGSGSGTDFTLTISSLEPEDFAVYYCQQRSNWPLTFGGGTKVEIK")
0.19

Prompt: # query: EC50 of entry OX40.17 (antibody, human IgG1, kappa, V domains shown) VH: EVQLVESGGGLVQPGGSLRLSCAASGFTFSSYDMHWVRQTTGKGLEWVSVIGTAGDTYYPGSVKGRFTISRENAKNSLYLQMNSLRAGDTAVYYCARGGMGNYFDYWGQGTLVTVSS VL: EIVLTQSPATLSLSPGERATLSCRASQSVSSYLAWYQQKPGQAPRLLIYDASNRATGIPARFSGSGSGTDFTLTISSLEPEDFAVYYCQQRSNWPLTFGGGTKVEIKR
Completion: 0.26
